Data provenance is patent US12286439B2.

# Test system: PC3 cells
# Experiment Summary: Dose-response analysis, PC3 cells
# Format: cell-based
# Condition Parameters: dose response, 72 hours

{"Molecule": "O=S1(=O)C=CC2ON=C(c3cc(Cl)cc(Cl)c3)C21 (stereo not shown)", "viability of PC3 cells": "did not"}
{"Molecule": "O=S1(=O)C=CC2ON=C(c3c[nH]c4ccccc34)C21 (stereo not shown)", "viability of PC3 cells": "significantly decreased"}
{"Molecule": "O=S1(=O)C=CC2ON=C(c3ccc(Cl)c(Cl)c3)C21 (stereo not shown)", "viability of PC3 cells": "did not"}
{"Molecule": "O=S1(=O)C=CC2ON=C(c3ccc(C(F)(F)F)cc3)C21 (stereo not shown)", "viability of PC3 cells": "significantly decreased"}
